Consider the following IC50 data for Cathepsin B (Homo sapiens, UniProt P07858), collected from several reports.
quantity.kind: IC50 (µM)

Sample records with IC50:
INSERT INTO measurements (compound_structure_string, unit_descriptor, assay_result) VALUES
  ('CC(C)C[C@H](NC(=O)[C@@H]1CCCN2C(=O)CC[C@H](NS(=O)(=O)c3ccc4ccccc4c3)C(=O)N12)C(=O)COC(=O)c1c(Cl)cccc1Cl', 'µM', 6),
  ('N#CC1(NC(=O)C2(NC(=O)c3cc4ccc(-c5ccc(C6(O)CCC6)cc5)cc4o3)CCCCC2)CC1', 'µM', 0.41),
  ('N#CC1(NC(=O)C2(NC(=O)c3cc4ccc(-c5ccc(N6CCNC6=O)cc5)cc4o3)CCC(F)(F)CC2)CC1', 'µM', 0.8),
  ('CC[C@H](NC(=O)[C@H](CS(=O)(=O)Cc1cccnc1)N[C@@H](c1ccc(F)cc1)C(F)(F)F)C(=O)C(=O)NC1CC1', 'µM', 0.0025),
  ('C[C@@H]1C[C@@H](NC(=O)c2ncc(-c3cc(C#N)ccc3OC3CC3)o2)CN1C#N', 'µM', 107);

A. Nc1nnc2nc3c(nn12)C(=O)c1ccccc1-3
B. O=C1c2ccccc2-c2nc3nnc(CO)n3nc21
Q: Could you determine which record has the numerically smaller IC50? Candidates: A and B State the label of the item chosen.
Result: A
